Data credit: patent US10709707B2

Molecular target: ganglionic receptor (α3β4) (Homo sapiens, UniProt P30926+P32297)
Construct: endogenous in cells
Sequence (P32297 32-505, one chain of several): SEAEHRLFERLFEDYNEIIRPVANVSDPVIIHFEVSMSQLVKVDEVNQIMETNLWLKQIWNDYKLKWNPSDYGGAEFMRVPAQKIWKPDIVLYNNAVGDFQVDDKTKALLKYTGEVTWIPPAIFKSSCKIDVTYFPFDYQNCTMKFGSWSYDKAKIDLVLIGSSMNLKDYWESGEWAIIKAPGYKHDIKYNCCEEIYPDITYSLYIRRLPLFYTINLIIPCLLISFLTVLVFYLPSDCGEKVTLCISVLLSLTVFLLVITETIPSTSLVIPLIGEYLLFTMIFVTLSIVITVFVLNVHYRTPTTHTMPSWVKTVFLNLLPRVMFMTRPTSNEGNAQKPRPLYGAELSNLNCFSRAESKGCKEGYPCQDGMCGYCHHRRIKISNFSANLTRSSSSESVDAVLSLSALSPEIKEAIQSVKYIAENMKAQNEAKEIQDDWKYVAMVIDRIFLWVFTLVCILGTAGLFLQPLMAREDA
Test: Receptor function ganglionic receptors (human), SH-SY5Y and IMR-32 cells
Assay type: cell-based
Settings: SH-SY5Y cells

| compound | EC50, µM |
| --- | --- |
| C(=C\[C@H]1CCNC1)/c1cncnc1 [Compound 1] | 18 |

====

Test: Single dose pharmacokinetics, monkey
Assay type: in vivo, Cyno monkey
Details: cynomolgus monkey, plasma; Cyno monkey, 10 mg/kg [14C]-Compound 1, oral, t = 168 h; read-out: AUC0-1

| item_smiles | AUC(0-t) |
| --- | --- |
| C(=C\[C@H]1CCNC1)/c1cncnc1 | 942 ng·h/mL |

====

Biological target: α4β2 (rat), a4b2*/a6b2*
Assay: Receptor function, [3H]-dopamine release from rat striatal synaptosomes
Format: biochemical
Settings: [3H]-DA release, rat striatal synaptosomes
pEC50: −log10 of the molar value.

| compound | pEC50 |
| --- | --- |
| C(=C\[C@H]1CCNC1)/c1cncnc1 [Compound 1] | 5.41 |

====

Assay: 7-day pilot intranasal toxicity and toxicokinetic study in rats
Settings: female, rat, plasma, inhaled or intranasal, 10.8 mg/day, Tmax, Female, Day 1, 10.8 mg/day (6%), intranasal TID

| item_smiles | Tmax [h] |
| --- | --- |
| C(=C\[C@H]1CCNC1)/c1cncnc1 | 6.08 |

====

Molecular target: ganglionic receptor (α3β4) (Homo sapiens, UniProt P30926+P32297)
Construct: endogenous in cells
Assay: Receptor binding ganglionic receptor, SH-SY5Y membranes
Conditions: Human ganglion-type (a3b4*), assay and tissue type not given

| item_smiles | units | Ki |
| --- | --- | --- |
| C(=C\[C@H]1CCNC1)/c1cncnc1 | µM | 8.8 |

====

Assay: Single dose pharmacokinetics, monkey
Type: in vivo, Cyno monkey
Settings: cynomolgus monkey, plasma; Cyno monkey, 10 mg/kg [14C]-Compound 1, oral; read-out: F (oral bioavailability)

| item_smiles | bioavailability [%] |
| --- | --- |
| C(=C\[C@H]1CCNC1)/c1cncnc1 | 31.1 |

====

Target: ganglionic receptor (α3β4) (Homo sapiens, UniProt P30926+P32297)
Construct: endogenous in cells
Experiment: Receptor function ganglionic receptors (human), SH-SY5Y and IMR-32 cells
Assay type: cell-based
Details: IMR-32 cells
pEC50: −log10 of the molar value.
observation_type: pEC50

| item_smiles | observation_type | experimental_result |
| --- | --- | --- |
| C(=C\[C@H]1CCNC1)/c1cncnc1 | pEC50 | 4.66 |

====

Experiment: Single dose pharmacokinetics, rat
Format: in vivo, Sprague-Dawley rat
Conditions: Sprague-Dawley, plasma; S-D rat, 30 mg/kg [14C]-Compound 1, oral
observation_type: Tmax (min)

| compound | observation_type | experimental_result |
| --- | --- | --- |
| C(=C\[C@H]1CCNC1)/c1cncnc1 [Compound 1] | Tmax | 15 |

====

Experiment: 7-day pilot intranasal toxicity and toxicokinetic study in rats
Conditions: female, rat, plasma, inhaled or intranasal, 3.6 mg/day, AUC0-t, Female, Day 1, 3.6 mg/day (2%), intranasal TID

| item_smiles | AUC(0-t) (ng·h/mL) |
| --- | --- |
| C(=C\[C@H]1CCNC1)/c1cncnc1 | 626 |

====

Molecular target: human α4β2 (Homo sapiens, UniProt P17787+P43681)
Sequence (P17787 26-502, one chain of several): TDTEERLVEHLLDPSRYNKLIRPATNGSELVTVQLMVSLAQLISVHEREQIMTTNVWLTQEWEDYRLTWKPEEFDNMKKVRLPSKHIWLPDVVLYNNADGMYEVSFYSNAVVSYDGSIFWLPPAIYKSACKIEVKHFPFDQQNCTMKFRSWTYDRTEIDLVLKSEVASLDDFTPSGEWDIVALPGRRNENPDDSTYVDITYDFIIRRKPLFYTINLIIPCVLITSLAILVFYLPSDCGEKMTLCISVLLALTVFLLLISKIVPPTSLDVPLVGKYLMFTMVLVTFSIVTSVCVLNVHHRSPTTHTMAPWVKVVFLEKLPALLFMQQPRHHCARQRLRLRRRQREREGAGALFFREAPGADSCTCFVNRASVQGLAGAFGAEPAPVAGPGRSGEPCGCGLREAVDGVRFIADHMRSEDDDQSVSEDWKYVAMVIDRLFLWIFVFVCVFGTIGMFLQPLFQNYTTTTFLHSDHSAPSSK
Assay: Receptor function α4β2, Ca++ flux
Format: cell-based
Settings: Ca++ flux, SH-EP1 cells expressing human α4β2
pEC50: −log10 of the molar value.

| item_smiles | assay_system | pEC50 |
| --- | --- | --- |
| C(=C\[C@H]1CCNC1)/c1cncnc1 | human α4β2 (Homo sapiens, UniProt P17787+P43681) | 5.28 |

====

Experiment: Single dose pharmacokinetics, monkey
Type: in vivo, Cyno monkey
Conditions: cynomolgus, plasma, Cyno monkey, 10 mg/kg [14C]-Compound 1, oral

| item_smiles | Cmax / ng/mL |
| --- | --- |
| C(=C\[C@H]1CCNC1)/c1cncnc1 | 254 |

====

Biological target: a6/a3b2b3 (Homo sapiens, UniProt P17787+P32297+Q15825)
Sequence (Q15825+P32297 fused with the stated changes): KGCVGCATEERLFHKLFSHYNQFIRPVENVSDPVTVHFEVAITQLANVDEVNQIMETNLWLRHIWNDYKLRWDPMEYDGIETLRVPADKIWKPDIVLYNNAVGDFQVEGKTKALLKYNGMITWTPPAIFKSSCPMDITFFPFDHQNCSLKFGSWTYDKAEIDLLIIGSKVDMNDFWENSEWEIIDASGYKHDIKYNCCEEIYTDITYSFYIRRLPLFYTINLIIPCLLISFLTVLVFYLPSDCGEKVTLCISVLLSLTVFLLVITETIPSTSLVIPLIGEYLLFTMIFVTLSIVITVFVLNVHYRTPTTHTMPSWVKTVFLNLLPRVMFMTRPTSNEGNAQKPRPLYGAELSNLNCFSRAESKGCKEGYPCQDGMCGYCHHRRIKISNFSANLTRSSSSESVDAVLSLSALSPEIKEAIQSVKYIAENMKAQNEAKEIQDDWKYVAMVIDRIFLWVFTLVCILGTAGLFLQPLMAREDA
Sequence (P17787 26-502): as the sequence (P17787 26-502, one chain of several) above
Sequence (Q05901 25-458 partner limits assumed): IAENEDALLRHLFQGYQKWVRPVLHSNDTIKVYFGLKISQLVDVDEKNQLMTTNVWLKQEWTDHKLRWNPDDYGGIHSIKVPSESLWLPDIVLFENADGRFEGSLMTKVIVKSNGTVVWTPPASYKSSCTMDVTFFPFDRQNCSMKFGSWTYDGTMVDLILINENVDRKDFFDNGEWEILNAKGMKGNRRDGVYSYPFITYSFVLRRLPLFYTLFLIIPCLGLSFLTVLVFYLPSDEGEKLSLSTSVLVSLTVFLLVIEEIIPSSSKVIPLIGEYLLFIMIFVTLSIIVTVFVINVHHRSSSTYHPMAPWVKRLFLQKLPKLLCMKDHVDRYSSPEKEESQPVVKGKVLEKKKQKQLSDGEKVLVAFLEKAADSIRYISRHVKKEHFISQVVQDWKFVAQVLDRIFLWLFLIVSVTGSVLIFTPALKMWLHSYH
Experiment: Receptor function a6/a3b2b3, Ca++ flux
Settings: Human a6/a3b2b3, Ca++ Flux
observation_type: EC50 (nM)

| item_smiles | units | experimental_result |
| --- | --- | --- |
| C(=C\[C@H]1CCNC1)/c1cncnc1 | nM | 470 |

====

Molecular target: human α4β2 (Homo sapiens, UniProt P17787+P43681)
Experiment: Receptor function α4β2, Ca++ flux
Assay type: cell-based
Conditions: a4b2 HS (high sensitivity), 29° C., Ca++ Flux
pEC50: −log10 of the molar value.

| item_smiles | pEC50 |
| --- | --- |
| C(=C\[C@H]1CCNC1)/c1cncnc1 | 5.48 |

====

Experiment: 7-day pilot intranasal toxicity and toxicokinetic study in rats
Settings: male, rat, plasma, inhaled or intranasal, 3.6 mg/day, Cmax, Male, Day 7, 3.6 mg/day (2%), intranasal TID
observation_type: Cmax (ng/mL)

| item_smiles | observation_type | units | experimental_result |
| --- | --- | --- | --- |
| C(=C\[C@H]1CCNC1)/c1cncnc1 | Cmax | ng/mL | 110 |

====

Target: a4b4 (Homo sapiens, UniProt P30926+P43681)
Sequence (P43681 29-627 limits assumed): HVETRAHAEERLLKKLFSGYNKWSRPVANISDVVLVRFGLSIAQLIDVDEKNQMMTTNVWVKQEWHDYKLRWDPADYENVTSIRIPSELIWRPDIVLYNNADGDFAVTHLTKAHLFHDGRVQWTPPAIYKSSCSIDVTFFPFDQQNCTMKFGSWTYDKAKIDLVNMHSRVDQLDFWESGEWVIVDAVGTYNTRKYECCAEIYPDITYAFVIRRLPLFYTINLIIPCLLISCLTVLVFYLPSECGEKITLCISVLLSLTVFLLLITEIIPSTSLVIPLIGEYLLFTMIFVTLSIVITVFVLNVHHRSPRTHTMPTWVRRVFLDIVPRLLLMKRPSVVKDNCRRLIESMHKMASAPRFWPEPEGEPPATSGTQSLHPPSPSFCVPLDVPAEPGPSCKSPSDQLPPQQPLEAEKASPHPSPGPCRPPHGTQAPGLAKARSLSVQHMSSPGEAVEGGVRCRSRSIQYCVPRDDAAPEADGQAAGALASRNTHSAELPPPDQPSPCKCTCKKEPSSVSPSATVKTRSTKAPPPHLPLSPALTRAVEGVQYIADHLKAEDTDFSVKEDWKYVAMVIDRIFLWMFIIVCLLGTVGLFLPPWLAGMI
Sequence (P30926 22-498): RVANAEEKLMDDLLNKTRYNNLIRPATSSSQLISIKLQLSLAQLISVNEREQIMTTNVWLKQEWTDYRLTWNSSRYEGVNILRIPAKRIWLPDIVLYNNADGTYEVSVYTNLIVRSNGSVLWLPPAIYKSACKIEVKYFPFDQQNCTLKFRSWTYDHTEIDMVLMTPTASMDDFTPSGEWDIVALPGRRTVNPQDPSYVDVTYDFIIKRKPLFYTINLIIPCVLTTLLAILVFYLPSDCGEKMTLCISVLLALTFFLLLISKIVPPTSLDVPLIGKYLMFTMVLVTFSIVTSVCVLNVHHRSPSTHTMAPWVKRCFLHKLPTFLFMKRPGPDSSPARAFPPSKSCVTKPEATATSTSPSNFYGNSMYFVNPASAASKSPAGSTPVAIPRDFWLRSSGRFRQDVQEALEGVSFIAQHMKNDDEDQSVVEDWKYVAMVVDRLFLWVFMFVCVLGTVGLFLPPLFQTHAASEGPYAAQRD
Experiment: Receptor function a4b4, Ca++ flux
observation_type: EC50 (µM)

| item_smiles | assay_system | observation_type | experimental_result |
| --- | --- | --- | --- |
| C(=C\[C@H]1CCNC1)/c1cncnc1 | a4b4 (Homo sapiens, UniProt P30926+P43681) | EC50 | 4.3 |

====

Molecular target: remaining muscarinic subtypes
Test: Follow-up dose response binding assay (CEREP)
pKi: −log10 of the molar value.

| item_smiles | assay_system | pKi |
| --- | --- | --- |
| C(=C\[C@H]1CCNC1)/c1cncnc1 | remaining muscarinic subtypes | < 5.00 |

====

Target: human α4β2 (Homo sapiens, UniProt P17787+P43681)
Assay: Receptor binding α4β2, recombinant human receptors in SH-EP1 cells
Details: [3H]-S-nicotine, human α4β2 expressed in SH-EP1 cells
observation_type: Ki (µM)

| compound | experimental_result |
| --- | --- |
| C(=C\[C@H]1CCNC1)/c1cncnc1 [Compound 1] | 0.017 |

====

Assay: 7-day pilot intranasal toxicity and toxicokinetic study in rats
Conditions: male, rat, plasma, inhaled or intranasal, 10.8 mg/day, Tmax, Male, Day 7, 10.8 mg/day (6%), intranasal TID

| item_smiles | Tmax [h] |
| --- | --- |
| C(=C\[C@H]1CCNC1)/c1cncnc1 | 12.1 |

====

Assay: 13-week repeat-dose oral toxicity in rats
Format: in vivo, rat
Conditions: both sexes, rat, in vivo; rats, oral gavage once daily, 13 weeks

| item_smiles | NOAEL at 13 weeks (mg/kg/day) |
| --- | --- |
| C(=C\[C@H]1CCNC1)/c1cncnc1 | 30 |

====

Assay: 7-day pilot intranasal toxicity and toxicokinetic study in rats
Conditions: male, rat, plasma, inhaled or intranasal, 10.8 mg/day, Tmax, Male, Day 1, 10.8 mg/day (6%), intranasal TID

| compound | Tmax / h |
| --- | --- |
| C(=C\[C@H]1CCNC1)/c1cncnc1 [Compound 1] | 12.1 |

====

Molecular target: a6b3b4a5 (Homo sapiens, UniProt P30926+Q15825)
Sequence (Q15825 26-494, one chain of several): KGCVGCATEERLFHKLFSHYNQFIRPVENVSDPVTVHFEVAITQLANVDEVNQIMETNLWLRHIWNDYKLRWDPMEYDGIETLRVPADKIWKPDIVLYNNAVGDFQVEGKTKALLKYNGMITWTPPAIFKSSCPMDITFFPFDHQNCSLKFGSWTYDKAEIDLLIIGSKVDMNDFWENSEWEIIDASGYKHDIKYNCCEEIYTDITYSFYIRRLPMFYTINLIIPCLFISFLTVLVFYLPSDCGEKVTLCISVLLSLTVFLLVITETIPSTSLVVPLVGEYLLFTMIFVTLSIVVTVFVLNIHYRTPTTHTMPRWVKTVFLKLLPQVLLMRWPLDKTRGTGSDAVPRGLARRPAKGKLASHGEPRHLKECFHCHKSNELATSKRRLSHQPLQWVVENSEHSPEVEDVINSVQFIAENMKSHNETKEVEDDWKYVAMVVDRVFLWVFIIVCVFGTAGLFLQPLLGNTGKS
Sequence (Q05901 25-458 partner limits assumed, one chain of several): as the sequence (Q05901 25-458 partner limits assumed) above
Sequence (P30532 23-468 partner, one chain of several): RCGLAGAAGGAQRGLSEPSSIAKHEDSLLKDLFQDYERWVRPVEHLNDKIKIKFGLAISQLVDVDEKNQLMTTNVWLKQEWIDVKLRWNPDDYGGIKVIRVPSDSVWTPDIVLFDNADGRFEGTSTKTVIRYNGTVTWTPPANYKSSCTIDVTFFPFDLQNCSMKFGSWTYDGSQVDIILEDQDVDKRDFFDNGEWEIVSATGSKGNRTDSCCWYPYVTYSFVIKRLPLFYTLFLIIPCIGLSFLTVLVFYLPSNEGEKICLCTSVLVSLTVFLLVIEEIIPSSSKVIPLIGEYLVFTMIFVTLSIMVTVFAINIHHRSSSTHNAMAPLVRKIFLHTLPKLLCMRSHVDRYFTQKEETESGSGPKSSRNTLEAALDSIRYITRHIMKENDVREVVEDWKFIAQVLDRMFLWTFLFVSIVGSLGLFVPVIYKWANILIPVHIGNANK
Experiment: Receptor binding a6b3b4a5
pKi: −log10 of the molar value.
observation_type: pKi

| item_smiles | observation_type | experimental_result |
| --- | --- | --- |
| C(=C\[C@H]1CCNC1)/c1cncnc1 | pKi | 5.96 |

====

Assay: Solubility in aqueous solutions
Type: physicochemical
Conditions: Water (pH 5.9)

| item_smiles | solubility |
| --- | --- |
| C(=C\[C@H]1CCNC1)/c1cncnc1 | > 10 mg/mL |

====

Test: Single dose pharmacokinetics, rat
Assay type: in vivo, Sprague-Dawley rat
Conditions: male, Sprague-Dawley, plasma; S-D rat, 0.3 mg/kg Compound 1, oral

| compound | units | Cmax |
| --- | --- | --- |
| C(=C\[C@H]1CCNC1)/c1cncnc1 [Compound 1] | ng/mL | 6.51 |

====

Assay: Single dose pharmacokinetics, rat
Type: in vivo, Sprague-Dawley rat
Conditions: male, Sprague-Dawley, plasma; S-D rat, 0.3 mg/kg Compound 1, oral, t = 25 h; read-out: AUC0-1

| item_smiles | units | AUC(0-t) |
| --- | --- | --- |
| C(=C\[C@H]1CCNC1)/c1cncnc1 | ng·h/mL | 13.5 |

====

Assay: 7-day pilot intranasal toxicity and toxicokinetic study in rats
Settings: both, rat, plasma, inhaled or intranasal

| item_smiles | units | half-life |
| --- | --- | --- |
| C(=C\[C@H]1CCNC1)/c1cncnc1 | min | 84 |
